[3H]TMG accumulation relative to control values by entry
System: Escherichia coli
Assay: Inhibition of lactose permease in Escherichia coli HN1157 assessed as [3H]TMG accumulation up to 20 uM relative to control
Answer format: numeric, % implied, no suffix.

CC(=O)Nc1ccc(CCSc2nc(N3CC(C)OC(C)C3)c3c(c2C#N)CC(C)(C)OC3)cc1 (stereo not given)    97
COCCN1CCN(c2nc(SCCc3ccc(OC)cc3)c(C#N)c3c2COC(C)(C)C3)CC1    103
CC1(C)Cc2c(C#N)c(SCCc3ccccc3)nc(N3CCOCC3)c2CO1    102

Exercise: Lookup: [3H]TMG accumulation relative to control / Escherichia coli / COc1cccc(CCSc2nc(N3CCOCC3)c3c(c2C#N)CC(C)(C)OC3)c1
Solution: 99

Exercise: Escherichia coli / [3H]TMG accumulation relative to control / CC1CN(c2nc(SCCc3cccc(F)c3)c(C#N)c3c2COC(C)(C)C3)CC(C)O1 (stereo not given) : value?
Solution: 103

* * *

Attribute: INH
Tested on: Escherichia coli
Assay: Inhibition of multidrug resistance efflux pump in Escherichia coli assessed as concentration required to reduce levofloxacin MIC by 4-fold by checkerboard assay
Your answer should be a plain number; it is taken to be in µM.

Here is how some compounds turned out for INH.
CN1CCN(c2nc(SCCc3ccccc3)c(C#N)c3c2COC(C)(C)C3)CC1    6.3
CC1CN(c2nc(SCCc3cccnc3)c(C#N)c3c2COC(C)(C)C3)CC(C)O1 (stereo not given)    12.5
COc1ccc(CCSc2nc(N3CCOCC3)c3c(c2C#N)CC(C)(C)OC3)cc1OC    1.3
COCCN1CCN(c2nc(SCCc3ccc(OC)c(OC)c3)c(C#N)c3c2COC(C)(C)C3)CC1    1.6

As a next step, examine the compound that follows.
Exercise: # query: INH of entry CC1(C)Cc2c(C#N)c(SCCc3cccc(Cl)c3)nc(N3CCOCC3)c2CO1
Solution: 3.1

* * *

Quick reference for solubility kinetic among some molecules
Assay: Aqueous solubility of the compound by nephlometric method
Format: physicochemical
Express the result in µM but write the number alone.

CC1(C)Cc2c(C#N)c(SCCc3ccccc3)nc(N3CCOCC3)c2CO1    12
CC1CN(c2nc(SCCc3ccc(NC(=N)N)cc3)c(C#N)c3c2COC(C)(C)C3)CC(C)O1 (stereo not given)    100
COc1cccc(CCSc2nc(N3CCOCC3)c3c(c2C#N)CC(C)(C)OC3)c1    50
C=CC(=O)Nc1ccc(CCSc2nc(N3CC(C)OC(C)C3)c3c(c2C#N)CC(C)(C)OC3)cc1 (stereo not given)    25

Now turn to the next molecule.
Exercise: Given CC(=O)Nc1ccc(CCSc2nc(N3CC(C)OC(C)C3)c3c(c2C#N)CC(C)(C)OC3)cc1 (stereo not given) , state its recorded solubility kinetic.
Solution: 50

* * *

Assay: Metabolic stability in human liver microsomes assessed as compound remaining at 25 uM after 60 mins by HPLC analysis in presence of NADPH
Type: ADME
Details: read-out: Stability
quantity: remaining at 1 h, 25 µM (%)
Give the value, in units of %, as a plain number.

COCCN1CCN(c2nc(SCCc3ccccc3)c(C#N)c3c2COC(C)(C)C3)CC1    0
COc1ccc(CCSc2nc(N3CCOCC3)c3c(c2C#N)CC(C)(C)OC3)cc1OC    21
CC1CN(c2nc(SCCc3ccc(NC(=O)OC(C)(C)C)cc3)c(C#N)c3c2COC(C)(C)C3)CC(C)O1 (centres undefined)    59
CC1(C)Cc2c(C#N)c(SCCc3ccccc3)nc(N3CCOCC3)c2CO1    0

Exercise: So what's the measured remaining at 1 h, 25 µM for this one? CC1CN(c2nc(SCCc3ccc(NC(=O)C(F)(F)F)cc3)c(C#N)c3c2COC(C)(C)C3)CC(C)O1 (centres undefined)
Solution: 90

Exercise: Which remaining at 1 h, 25 µM is reported for this compound? CC1CN(c2nc(SCCc3cccnc3)c(C#N)c3c2COC(C)(C)C3)CC(C)O1 (centres undefined)
Solution: 53

Exercise: I would be grateful if you could share the reported remaining at 1 h, 25 µM for COc1cccc(CCSc2nc(N3CCOCC3)c3c(c2C#N)CC(C)(C)OC3)c1 .
Solution: 8

Exercise: Which remaining at 1 h, 25 µM is listed for C=CC(=O)Nc1ccc(CCSc2nc(N3CC(C)OC(C)C3)c3c(c2C#N)CC(C)(C)OC3)cc1 (centres undefined) ?
Solution: 100

Exercise: Value lookup for remaining at 1 h, 25 µM; key = CC1CN(c2nc(SCCc3ccc(NC(=N)N)cc3)c(C#N)c3c2COC(C)(C)C3)CC(C)O1 (centres undefined)
Solution: 90
